Below is a list of entries, each paired with its recorded pIC50 value.
# Target Of Assay: human LRRK2 kinase (Homo sapiens, UniProt Q5S007)
# Sequence (Q5S007 whole entry): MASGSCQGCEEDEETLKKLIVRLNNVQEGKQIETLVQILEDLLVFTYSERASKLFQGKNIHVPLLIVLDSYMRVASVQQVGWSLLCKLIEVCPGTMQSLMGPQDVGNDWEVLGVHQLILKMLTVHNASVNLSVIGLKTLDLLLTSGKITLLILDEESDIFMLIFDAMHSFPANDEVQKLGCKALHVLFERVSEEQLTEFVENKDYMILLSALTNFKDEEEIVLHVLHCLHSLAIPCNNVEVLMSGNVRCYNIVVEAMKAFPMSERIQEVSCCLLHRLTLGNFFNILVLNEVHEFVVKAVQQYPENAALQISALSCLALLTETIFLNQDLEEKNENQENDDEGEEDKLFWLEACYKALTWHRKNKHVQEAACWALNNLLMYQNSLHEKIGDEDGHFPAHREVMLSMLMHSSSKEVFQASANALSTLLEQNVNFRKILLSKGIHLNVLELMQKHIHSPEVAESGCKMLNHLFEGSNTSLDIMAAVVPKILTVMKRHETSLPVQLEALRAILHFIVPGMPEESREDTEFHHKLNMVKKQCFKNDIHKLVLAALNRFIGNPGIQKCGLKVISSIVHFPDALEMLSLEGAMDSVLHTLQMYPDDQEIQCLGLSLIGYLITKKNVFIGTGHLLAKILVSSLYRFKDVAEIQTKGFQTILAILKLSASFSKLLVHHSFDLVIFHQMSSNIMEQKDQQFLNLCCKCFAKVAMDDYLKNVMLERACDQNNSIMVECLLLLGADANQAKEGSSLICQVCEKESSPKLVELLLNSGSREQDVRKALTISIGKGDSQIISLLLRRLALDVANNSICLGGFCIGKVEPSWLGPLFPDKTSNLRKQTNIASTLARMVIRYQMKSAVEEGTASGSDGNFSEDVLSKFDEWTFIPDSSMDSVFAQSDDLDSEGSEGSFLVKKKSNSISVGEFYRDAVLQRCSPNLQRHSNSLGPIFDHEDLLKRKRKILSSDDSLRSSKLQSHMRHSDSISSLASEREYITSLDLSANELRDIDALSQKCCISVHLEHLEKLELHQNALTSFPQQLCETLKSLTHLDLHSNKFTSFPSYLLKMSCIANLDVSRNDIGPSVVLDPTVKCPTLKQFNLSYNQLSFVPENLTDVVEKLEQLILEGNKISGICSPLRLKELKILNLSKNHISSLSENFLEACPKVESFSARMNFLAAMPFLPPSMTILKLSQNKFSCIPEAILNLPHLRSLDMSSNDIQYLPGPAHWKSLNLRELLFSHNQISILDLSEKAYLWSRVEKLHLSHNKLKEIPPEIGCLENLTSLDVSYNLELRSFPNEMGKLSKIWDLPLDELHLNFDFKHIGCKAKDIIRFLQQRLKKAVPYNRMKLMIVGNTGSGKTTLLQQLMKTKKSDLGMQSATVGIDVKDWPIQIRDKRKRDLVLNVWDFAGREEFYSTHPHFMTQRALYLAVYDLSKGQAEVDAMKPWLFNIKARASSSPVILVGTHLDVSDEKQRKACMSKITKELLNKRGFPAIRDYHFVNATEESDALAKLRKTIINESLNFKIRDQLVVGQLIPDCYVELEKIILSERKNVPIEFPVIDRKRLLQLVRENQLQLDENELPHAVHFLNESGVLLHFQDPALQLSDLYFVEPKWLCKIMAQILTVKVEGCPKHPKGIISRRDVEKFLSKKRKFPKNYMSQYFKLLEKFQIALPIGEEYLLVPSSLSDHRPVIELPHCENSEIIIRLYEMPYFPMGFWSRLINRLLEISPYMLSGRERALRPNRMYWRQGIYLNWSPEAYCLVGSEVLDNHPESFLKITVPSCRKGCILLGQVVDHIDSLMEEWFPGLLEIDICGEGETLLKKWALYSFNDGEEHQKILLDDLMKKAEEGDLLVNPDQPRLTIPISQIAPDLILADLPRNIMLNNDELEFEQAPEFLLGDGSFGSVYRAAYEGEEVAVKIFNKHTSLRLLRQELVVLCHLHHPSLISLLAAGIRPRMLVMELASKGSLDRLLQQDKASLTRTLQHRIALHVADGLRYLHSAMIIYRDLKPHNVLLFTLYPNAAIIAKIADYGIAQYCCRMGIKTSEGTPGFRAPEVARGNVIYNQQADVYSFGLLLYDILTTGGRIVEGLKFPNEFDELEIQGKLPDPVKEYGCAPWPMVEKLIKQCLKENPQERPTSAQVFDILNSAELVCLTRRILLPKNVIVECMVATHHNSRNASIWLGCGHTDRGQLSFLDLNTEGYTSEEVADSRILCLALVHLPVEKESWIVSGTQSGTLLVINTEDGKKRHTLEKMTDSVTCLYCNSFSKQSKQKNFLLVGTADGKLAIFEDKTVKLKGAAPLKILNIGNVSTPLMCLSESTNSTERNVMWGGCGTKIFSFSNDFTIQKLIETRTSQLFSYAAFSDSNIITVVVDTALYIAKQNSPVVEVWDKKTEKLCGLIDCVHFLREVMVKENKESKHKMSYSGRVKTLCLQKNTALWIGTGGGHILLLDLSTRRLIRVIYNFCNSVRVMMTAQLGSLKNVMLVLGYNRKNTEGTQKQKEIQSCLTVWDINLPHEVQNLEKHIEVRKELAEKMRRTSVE
# Condition Description: LRRK2, ADP-Glo, ATP 10 μM, 60 minutes at 25° C.
pIC50: −log10 of the molar value.

[
  {
    "Compound": "CC[C@@H](C)Nc1nc(Nc2ccc(S(=O)(=O)N3CCC(N4CCOCC4)CC3)cc2OC)nc2[nH]cc(Cl)c12",
    "pIC50": "6.00 to 7.00"
  },
  {
    "Compound": "CCC(C)Nc1nc(Nc2ccc(S(=O)(=O)N3CCC(N4CCOCC4)CC3)cc2OC)nc2[nH]cc(Cl)c12 (stereo in doubt)",
    "pIC50": "7.00 to 8.00"
  },
  {
    "Compound": "O=C(c1ccc(Nc2nc(NC3CCCCC3)c3c(Cl)c[nH]c3n2)c2c1CCO2)N1CCOCC1",
    "pIC50": "6.00 to 7.00"
  },
  {
    "Compound": "CCNc1nc(Nc2ccc(C(=O)N3CCOCC3)c3c2OCC3)nc2[nH]cc(Cl)c12",
    "pIC50": "> 8.00"
  }
]

Quick one: give measured pIC50 for COc1cc(S(=O)(=O)N2CCOCC2)ccc1Nc1nc(NCC(C)C)c2c(Cl)c[nH]c2n1
6.00 to 7.00

Quick one: give measured pIC50 for CC[C@@H](C)Nc1nc(Nc2ccc(S(C)(=O)=O)cc2OC)nc2[nH]cc(Cl)c12
7.00 to 8.00

Quick one: give measured pIC50 for CNc1nc(Nc2ccc(C(=O)N3CCOCC3)c3c2OCC3)nc2[nH]cc(Cl)c12
> 8.00

====

# Target Of Assay: human LRRK2 kinase (Homo sapiens, UniProt Q5S007)
# Condition Description: LRRK2, ADP-Glo, ATP 10 μM, 60 minutes at 25° C.
Below is a list of entries, each paired with its recorded IC50 value.

Consider the following illustrative entries.
[
  {
    "Compound Smiles": "COc1cc(P2(=O)CCN(C(C)=O)CC2)ccc1Nc1nc(NC2CC2)c2c(Cl)c[nH]c2n1",
    "Target Of Assay": "human LRRK2 kinase (Homo sapiens, UniProt Q5S007)",
    "IC50": "< 10 nM"
  },
  {
    "Compound Smiles": "O=C(c1ccc(Nc2nc(NCC3CC3)c3c(Cl)c[nH]c3n2)c2c1OCCO2)N1CCOCC1",
    "Target Of Assay": "human LRRK2 kinase (Homo sapiens, UniProt Q5S007)",
    "IC50": "< 10 nM"
  }
]

Moving on to another compound below.
Quick one: give measured IC50 for COc1cc(P2(=O)CCN(C3CC3)CC2)ccc1Nc1nc(NC2CCC2)c2c(Cl)c[nH]c2n1
10 to 100 nM

====

# Target Of Assay: human LRRK2 kinase (Homo sapiens)
# Condition Description: LRRK2, ADP-Glo, ATP 10 μM, 60 minutes at 25° C.
pIC50: −log10 of the molar value.
Metric: pIC50

[
  {
    "Compound": "COc1cc(S(=O)(=O)N2CCC(N3CCOCC3)CC2)ccc1Nc1nc(N[C@H]2CCOC2)c2c(Cl)c[nH]c2n1 [Compound 61]",
    "pIC50": "> 8.00"
  },
  {
    "Compound": "COc1cc(S(=O)(=O)N2CCOCC2)ccc1Nc1nc(NCCS(C)(=O)=O)c2c(Cl)c[nH]c2n1 [Compound 68]",
    "pIC50": "7.00 to 8.00"
  },
  {
    "Compound": "O=C(c1ccc(Nc2nc(NC3CC3)c3c(Cl)c[nH]c3n2)c2c1OCCO2)N1CCOCC1 [Compound 27]",
    "pIC50": "> 8.00"
  },
  {
    "Compound": "CC[C@@H](C)Nc1nc(Nc2ccc(C(=O)N3CCOCC3)c3c2OCCO3)nc2[nH]cc(Cl)c12 [Compound 50]",
    "pIC50": "> 8.00"
  },
  {
    "Compound": "CCNc1nc(Nc2ccc(C(=O)N3CCC(N4CCOCC4)CC3)c3c2OCC3)nc2[nH]cc(Cl)c12 [Compound 105]",
    "pIC50": "> 8.00"
  },
  {
    "Compound": "CCCCNc1nc(Nc2ccc(S(C)(=O)=O)cc2OC)nc2[nH]cc(Cl)c12 [Compound 73]",
    "pIC50": "7.00 to 8.00"
  }
]

Quick one: give measured pIC50 for CNc1nc(Nc2ccc(P3(=O)CCN(C(C)=O)CC3)cc2OC)nc2[nH]cc(Cl)c12 [Compound 82]
> 8.00

Quick one: give measured pIC50 for COc1cc(S(=O)(=O)N2CCC(N3CCOCC3)CC2)ccc1Nc1nc(NCC2CCCC2)c2c(Cl)c[nH]c2n1 [Compound 67]
6.00 to 7.00

Quick one: give measured pIC50 for COCCNc1nc(Nc2ccc(S(C)(=O)=O)cc2OC)nc2[nH]cc(Cl)c12 [Compound 23]
> 8.00

====

# Target Of Assay: human LRRK2 kinase (Homo sapiens, UniProt Q5S007)
# Condition Description: LRRK2, ADP-Glo, ATP 10 μM, 60 minutes at 25° C.
Metric: IC50

Consider the following illustrative entries.
[
  {
    "Compound Smiles": "COc1cc(S(=O)(=O)N2CCOCC2)ccc1Nc1nc(N[C@H]2CCOC2)c2c(Cl)c[nH]c2n1",
    "IC50": "10 to 100 nM"
  },
  {
    "Compound Smiles": "COCCNc1nc(Nc2ccc(C(=O)N3CCC(N4CCOCC4)CC3)c3c2OCCO3)nc2[nH]cc(Cl)c12",
    "IC50": "< 10 nM"
  },
  {
    "Compound Smiles": "COc1cc(P2(=O)CCN(C3CCOCC3)CC2)ccc1Nc1nc(NC2CCCCC2)c2c(Cl)c[nH]c2n1",
    "IC50": "10 to 100 nM"
  }
]

Quick one: give measured IC50 for COc1cc(S(=O)(=O)N2CCC(N3CCOCC3)CC2)ccc1Nc1nc(NC2CCCC2)c2c(Cl)c[nH]c2n1
10 to 100 nM

Quick one: give measured IC50 for COc1cc(S(=O)(=O)N2CCOCC2)ccc1Nc1nc(NC2CCC2)c2c(Cl)c[nH]c2n1
100 to 1000 nM

Quick one: give measured IC50 for COc1cc(S(C)(=O)=O)ccc1Nc1nc(NC2CCCC2)c2c(Cl)c[nH]c2n1
100 to 1000 nM

Quick one: give measured IC50 for CCCNc1nc(Nc2ccc(C(=O)N3CCOCC3)c3c2OCCO3)nc2[nH]cc(Cl)c12
10 to 100 nM

Quick one: give measured IC50 for CCCNc1nc(Nc2ccc(C(=O)N3CCC(N4CCOCC4)CC3)c3c2OCC3)nc2[nH]cc(Cl)c12
10 to 100 nM

Quick one: give measured IC50 for CCNc1nc(Nc2ccc(C(=O)N3CCC(N4CCOCC4)CC3)c3c2OCCO3)nc2[nH]cc(Cl)c12
< 10 nM

Quick one: give measured IC50 for COc1cc(P2(=O)CCN(C(C)=O)CC2)ccc1Nc1nc(NCC(C)C)c2c(Cl)c[nH]c2n1
10 to 100 nM

Quick one: give measured IC50 for COc1cc(P2(=O)CCN(C3CC3)CC2)ccc1Nc1nc(NC2CCCCC2)c2c(Cl)c[nH]c2n1
100 to 1000 nM

====

# Target Of Assay: UniProt Q5S007
# Condition Description: LRRK2, ADP-Glo, ATP 10 μM, 60 minutes at 25° C.
Below is a list of entries, each paired with its recorded IC50 value.

Consider the following illustrative entries.
[
  {
    "Compound Smiles": "CNc1nc(Nc2ccc(S(C)(=O)=O)cc2OC)nc2[nH]cc(Cl)c12",
    "Recorded Result": "< 10 nM"
  },
  {
    "Compound Smiles": "COc1cc(P2(=O)CCN(C3CC3)CC2)ccc1Nc1nc(NCC(C)C)c2c(Cl)c[nH]c2n1",
    "Recorded Result": "100 to 1000 nM"
  },
  {
    "Compound Smiles": "CCNc1nc(Nc2ccc(S(C)(=O)=O)cc2OC)nc2[nH]cc(Cl)c12",
    "Recorded Result": "10 to 100 nM"
  }
]

Moving on to another compound below.
Quick one: give measured IC50 for CNc1nc(Nc2ccc(P3(=O)CCN(C4CC4)CC3)cc2OC)nc2[nH]cc(Cl)c12
10 to 100 nM

====

Below is a list of entries, each paired with its recorded IC50 value.
# Target Of Assay: human LRRK2 kinase (Homo sapiens, UniProt Q5S007)
# Condition Description: LRRK2, ADP-Glo, ATP 10 μM, 60 minutes at 25° C.

[
  {
    "Compound": "O=C(c1ccc(Nc2nc(NC3CCC3)c3c(Cl)c[nH]c3n2)c2c1OCCO2)N1CCC(N2CCOCC2)CC1 [Compound 4]",
    "IC50": "< 10 nM"
  },
  {
    "Compound": "COc1cc(S(C)(=O)=O)ccc1Nc1nc(NCC2CC2)c2c(Cl)c[nH]c2n1 [Compound 64]",
    "IC50": "10 to 100 nM"
  },
  {
    "Compound": "COc1cc(P2(=O)CCN(C(C)=O)CC2)ccc1Nc1nc(NC(C)C)c2c(Cl)c[nH]c2n1 [Compound 89]",
    "IC50": "10 to 100 nM"
  }
]

Find the measured IC50 of COc1cc(S(C)(=O)=O)ccc1Nc1nc(N[C@H]2CCOC2)c2c(Cl)c[nH]c2n1 [Compound 94] with human LRRK2 kinase (Homo sapiens, UniProt Q5S007) as test system.
< 10 nM

Find the measured IC50 of CCCNc1nc(Nc2ccc(C(=O)N3CCC(N4CCOCC4)CC3)c3c2OCCO3)nc2[nH]cc(Cl)c12 [Compound 2] with human LRRK2 kinase (Homo sapiens, UniProt Q5S007) as test system.
< 10 nM

Find the measured IC50 of COc1cc(S(=O)(=O)N2CCC(N3CCOCC3)CC2)ccc1Nc1nc(NC(C)C)c2c(Cl)c[nH]c2n1 [Compound 87] with human LRRK2 kinase (Homo sapiens, UniProt Q5S007) as test system.
100 to 1000 nM

Find the measured IC50 of COc1cc(P2(=O)CCN(C(C)=O)CC2)ccc1Nc1nc(NC2CCC2)c2c(Cl)c[nH]c2n1 [Compound 92] with human LRRK2 kinase (Homo sapiens, UniProt Q5S007) as test system.
10 to 100 nM
